System: HepG2
EXPERIMENT_DESCRIPTION: Cytotoxicity assay (xCELLigence impedance)
Type: cell-based, human
EXPERIMENTAL_CONTEXT: c 100 µg/mL, 24 h exposure
Residues, ends and D or L forms follow the SMILES beside them. *: point of attachment. Palmitoyl = CCCCCCCCCCCCCCCC(=O)*
READOUT_LABEL: % inhibition (%)
Please state the figure in %; there is no need to write the unit.

What measured % inhibition goes with CCCCCCCCCCCCCCCC(=O)N[C@@H](CC(C)C)C(=O)N[C@H](C(=O)N[C@@H](CCCCN)C(=O)N[C@@H](CCCNC(=N)N)C(=O)N[C@@H](C)C(=O)NCC(N)=O)C(C)C [SHP-1.2, PAL-LVKRAG-NH2] (Palmitoyl-LVKRAG-NH2) ?
42.2

---

Test system: Staph. aureus MRSA1
Format: cell-based, Staphylococcus aureus
EXPERIMENTAL_CONTEXT: 24 h
Residues, ends and D or L forms follow the SMILES beside them. *: point of attachment. Lithocholoyl = C[C@H](CCC(=O)*)[C@H]1CC[C@H]2[C@@H]3CC[C@@H]4C[C@H](O)CC[C@]4(C)[C@H]3CC[C@]12C; Palmitoyl = CCCCCCCCCCCCCCCC(=O)*
Record form. Attribute: MIC. Fill in for each entry.
Write down the value, and be sure its unit follows.

Look at this compound and give its reported MIC. CCCCCCCCCCCCCCCC(=O)NCC(=O)N[C@H](C(=O)N[C@@H](CC(C)C)C(=O)N[C@@H](CCCCN)C(=O)N[C@@H](CCCNC(=N)N)C(=O)N[C@@H](C)C(N)=O)C(C)C [SHP-3.2, PAL-GVLKRA-NH2] (Palmitoyl-GVLKRA-NH2)
6.8 µg/mL

Consider the compound shown here: CCCCCCCCCCCCCCCC(=O)N[C@@H](CC(C)C)C(=O)N[C@H](C(=O)N[C@@H](CCCCN)C(=O)N[C@@H](CCCNC(=N)N)C(=O)N[C@@H](C)C(=O)NCC(N)=O)C(C)C [SHP-1.2, PAL-LVKRAG-NH2] (Palmitoyl-LVKRAG-NH2) What is its recorded MIC?
7.8 µg/mL

Given CC(C)C[C@H](NC(=O)[C@@H](NC(=O)CNC(=O)CC[C@@H](C)[C@H]1CC[C@H]2[C@@H]3CC[C@@H]4C[C@H](O)CC[C@]4(C)[C@H]3CC[C@]12C)C(C)C)C(=O)N[C@@H](CCCCN)C(=O)N[C@@H](CCCNC(=N)N)C(=O)N[C@@H](C)C(N)=O [SHP-3.3, LCA-GVLKRA-NH2] (Lithocholoyl-GVLKRA-NH2) , state its recorded MIC.
25.2 µg/mL

---

Tested on: HEK293T
EXPERIMENT_DESCRIPTION: Cytotoxicity assay (xCELLigence impedance)
Format: cell-based, human
EXPERIMENTAL_CONTEXT: c 100 µg/mL, 24 h exposure
Residues, ends and D or L forms follow the SMILES beside them. *: point of attachment. Lithocholoyl = C[C@H](CCC(=O)*)[C@H]1CC[C@H]2[C@@H]3CC[C@@H]4C[C@H](O)CC[C@]4(C)[C@H]3CC[C@]12C; Palmitoyl = CCCCCCCCCCCCCCCC(=O)*
For each of the compounds below, state its % inhibition.
Form entry: value (%) — number only.

Quick check: % inhibition of CC(C)C[C@H](NC(=O)CC[C@@H](C)[C@H]1CC[C@H]2[C@@H]3CC[C@@H]4C[C@H](O)CC[C@]4(C)[C@H]3CC[C@]12C)C(=O)N[C@H](C(=O)N[C@@H](CCCCN)C(=O)N[C@@H](CCCNC(=N)N)C(=O)N[C@@H](C)C(=O)NCC(N)=O)C(C)C [SHP-1.3, LCA-LVKRAG-NH2] (Lithocholoyl-LVKRAG-NH2) ?
72.0

% inhibition lookup needed for CC(C)C[C@H](NC(=O)[C@@H](NC(=O)CNC(=O)CC[C@@H](C)[C@H]1CC[C@H]2[C@@H]3CC[C@@H]4C[C@H](O)CC[C@]4(C)[C@H]3CC[C@]12C)C(C)C)C(=O)N[C@@H](CCCCN)C(=O)N[C@@H](CCCNC(=N)N)C(=O)N[C@@H](C)C(N)=O [SHP-3.3, LCA-GVLKRA-NH2] (Lithocholoyl-GVLKRA-NH2) , thanks.
28.5

# get_value(readout='% inhibition', item= CCCCCCCCCCCCCCCC(=O)N[C@@H](CC(C)C)C(=O)N[C@H](C(=O)N[C@@H](CCCCN)C(=O)N[C@@H](CCCNC(=N)N)C(=O)N[C@@H](C)C(=O)NCC(N)=O)C(C)C [SHP-1.2, PAL-LVKRAG-NH2] (Palmitoyl-LVKRAG-NH2) )
77.8

---

Tested on: HEK293T
EXPERIMENT_DESCRIPTION: Cytotoxicity assay (xCELLigence impedance)
Format: cell-based, human
EXPERIMENTAL_CONTEXT: c 200 µg/mL, 24 h exposure
Residues, ends and D or L forms follow the SMILES beside them. *: point of attachment. Lithocholoyl = C[C@H](CCC(=O)*)[C@H]1CC[C@H]2[C@@H]3CC[C@@H]4C[C@H](O)CC[C@]4(C)[C@H]3CC[C@]12C
READOUT_LABEL: % inhibition (%)
State just the number; it will be interpreted in %.

Fill in the blank: the reported % inhibition of CC(C)C[C@H](NC(=O)CC[C@@H](C)[C@H]1CC[C@H]2[C@@H]3CC[C@@H]4C[C@H](O)CC[C@]4(C)[C@H]3CC[C@]12C)C(=O)N[C@H](C(=O)N[C@@H](CCCCN)C(=O)NCC(=O)N[C@@H](C)C(=O)N[C@@H](CCCNC(=N)N)C(N)=O)C(C)C [SHP-2.3, LCA-LVKGAR-NH2] (Lithocholoyl-LVKGAR-NH2) is ____.
85.1

---

Test system: HepG2
EXPERIMENT_DESCRIPTION: Cytotoxicity assay (xCELLigence impedance)
Assay type: cell-based, human
EXPERIMENTAL_CONTEXT: c 50 µg/mL, 24 h exposure
Residues, ends and D or L forms follow the SMILES beside them. *: point of attachment. Lithocholoyl = C[C@H](CCC(=O)*)[C@H]1CC[C@H]2[C@@H]3CC[C@@H]4C[C@H](O)CC[C@]4(C)[C@H]3CC[C@]12C; Palmitoyl = CCCCCCCCCCCCCCCC(=O)*
READOUT_LABEL: % inhibition (%)
State the answer as a number, implicitly in %.

Which % inhibition is listed for CC(C)C[C@H](NC(=O)CC[C@@H](C)[C@H]1CC[C@H]2[C@@H]3CC[C@@H]4C[C@H](O)CC[C@]4(C)[C@H]3CC[C@]12C)C(=O)N[C@H](C(=O)N[C@@H](CCCCN)C(=O)NCC(=O)N[C@@H](C)C(=O)N[C@@H](CCCNC(=N)N)C(N)=O)C(C)C [SHP-2.3, LCA-LVKGAR-NH2] (Lithocholoyl-LVKGAR-NH2) ?
7.4

Requested field: % inhibition. Item: CCCCCCCCCCCCCCCC(=O)N[C@@H](CC(C)C)C(=O)N[C@H](C(=O)N[C@@H](CCCCN)C(=O)N[C@@H](CCCNC(=N)N)C(=O)N[C@@H](C)C(=O)NCC(N)=O)C(C)C [SHP-1.2, PAL-LVKRAG-NH2] (Palmitoyl-LVKRAG-NH2)
4.1

What value of % inhibition has been reported for the following compound? CC(C)C[C@H](NC(=O)CC[C@@H](C)[C@H]1CC[C@H]2[C@@H]3CC[C@@H]4C[C@H](O)CC[C@]4(C)[C@H]3CC[C@]12C)C(=O)N[C@H](C(=O)N[C@@H](CCCCN)C(=O)N[C@@H](CCCNC(=N)N)C(=O)N[C@@H](C)C(=O)NCC(N)=O)C(C)C [SHP-1.3, LCA-LVKRAG-NH2] (Lithocholoyl-LVKRAG-NH2)
57.4

# query: % inhibition of entry CCCCCCCCCCCCCCCC(=O)NCC(=O)N[C@H](C(=O)N[C@@H](CC(C)C)C(=O)N[C@@H](CCCCN)C(=O)N[C@@H](CCCNC(=N)N)C(=O)N[C@@H](C)C(N)=O)C(C)C [SHP-3.2, PAL-GVLKRA-NH2] (Palmitoyl-GVLKRA-NH2)
17.0

Which value of % inhibition has been reported for CC(C)C[C@H](NC(=O)[C@@H](NC(=O)CNC(=O)CC[C@@H](C)[C@H]1CC[C@H]2[C@@H]3CC[C@@H]4C[C@H](O)CC[C@]4(C)[C@H]3CC[C@]12C)C(C)C)C(=O)N[C@@H](CCCCN)C(=O)N[C@@H](CCCNC(=N)N)C(=O)N[C@@H](C)C(N)=O [SHP-3.3, LCA-GVLKRA-NH2] (Lithocholoyl-GVLKRA-NH2) in the records?
4.3

% inhibition for CCCCCCCCCCCCCCCC(=O)N[C@@H](CC(C)C)C(=O)N[C@H](C(=O)N[C@@H](CCCCN)C(=O)NCC(=O)N[C@@H](C)C(=O)N[C@@H](CCCNC(=N)N)C(N)=O)C(C)C [SHP-2.2, PAL-LVKGAR-NH2] (Palmitoyl-LVKGAR-NH2) ?
4.3
